Source: patent US20240270821A1

System Under Test: hGIPR (Homo sapiens, UniProt P48546)
Sequence (P48546 22-466): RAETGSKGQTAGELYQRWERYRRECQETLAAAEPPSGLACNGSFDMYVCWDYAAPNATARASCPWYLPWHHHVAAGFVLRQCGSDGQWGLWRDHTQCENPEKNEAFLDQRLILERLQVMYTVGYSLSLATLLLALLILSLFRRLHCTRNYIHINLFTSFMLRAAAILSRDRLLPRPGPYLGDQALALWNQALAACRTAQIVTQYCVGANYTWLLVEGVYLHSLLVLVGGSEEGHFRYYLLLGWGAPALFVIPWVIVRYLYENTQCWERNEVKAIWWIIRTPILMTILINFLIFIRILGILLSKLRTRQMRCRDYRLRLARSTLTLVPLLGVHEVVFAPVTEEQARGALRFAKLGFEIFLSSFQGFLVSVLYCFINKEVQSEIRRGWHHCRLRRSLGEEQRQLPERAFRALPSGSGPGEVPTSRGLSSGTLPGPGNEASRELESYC
Protocol Notes: Functional cAMP activity in the presence of 1% HSA
Type: cell-based
Test Settings: read-out: cAMP Rel EC50, hGIPR
Starred links: 1 amine or outer side, 2 acyl side, 3 side chain; linkers in the order of their positions; H or OH if unused. Non-standard residues stand in square brackets, D forms with d. Groups on a side chain read outwards from the residue. *: point of attachment. C20 diacid = O=C(O)CCCCCCCCCCCCCCCCCCC(=O)*; C18 diacid = O=C(O)CCCCCCCCCCCCCCCCC(=O)*; αMePhe(2-F) = C[C@](N)(Cc1ccccc1F)C(=O)O; γGlu = O=C(O)[C@H](CCC(=O)[*:2])N[*:1]; αMe4Pal = C[C@](N)(Cc1ccncc1)C(=O)O; αMeY = C[C@](N)(Cc1ccc(O)cc1)C(=O)O; 4Pal = N[C@@H](Cc1ccncc1)C(=O)O; αMeL = CC(C)C[C@](C)(N)C(=O)O; αMeS = C[C@](N)(CO)C(=O)O; Orn = NCCC[C@H](N)C(=O)O; AEEA = NCCOCCOCC(=O)O; Aib = CC(C)(N)C(=O)O

>  <Substance>
H-Y[Aib]QGT[αMePhe(2-F)]TSD[4Pal][αMeS]I[αMeL]LD[Orn]K([AEEA-γGlu-C18 diacid])AQ[αMe4Pal]EFI[dE][αMeY]LVEGGPSSGEPPPSGTGE-NH2 [Example 734]

>  <Units Of Measure>
nM

>  <EC50>
1.3

$$$$
>  <Substance>
H-Y[Aib]QGTFTSDYSI[αMeL]LDKQAAK([AEEA-AEEA-γGlu-C20 diacid])AFVEWLLAGGPSSGEPPPSEG-NH2 [Example 305]

>  <Units Of Measure>
nM

>  <EC50>
92.4

$$$$
>  <Substance>
H-Y[Aib]QGTFTSDFS[Orn][αMeL]LDKK([AEEA-γGlu-C18 diacid])AQ[Aib]AFIEYLLE[Aib]GHSSGAPPPSGS-NH2 [Example 241]

>  <Units Of Measure>
nM

>  <EC50>
9.36

$$$$

----------
// reported pEC50 for each item listed
System Under Test: hGLP-1R (Homo sapiens)
Sequence (P43220 24-463): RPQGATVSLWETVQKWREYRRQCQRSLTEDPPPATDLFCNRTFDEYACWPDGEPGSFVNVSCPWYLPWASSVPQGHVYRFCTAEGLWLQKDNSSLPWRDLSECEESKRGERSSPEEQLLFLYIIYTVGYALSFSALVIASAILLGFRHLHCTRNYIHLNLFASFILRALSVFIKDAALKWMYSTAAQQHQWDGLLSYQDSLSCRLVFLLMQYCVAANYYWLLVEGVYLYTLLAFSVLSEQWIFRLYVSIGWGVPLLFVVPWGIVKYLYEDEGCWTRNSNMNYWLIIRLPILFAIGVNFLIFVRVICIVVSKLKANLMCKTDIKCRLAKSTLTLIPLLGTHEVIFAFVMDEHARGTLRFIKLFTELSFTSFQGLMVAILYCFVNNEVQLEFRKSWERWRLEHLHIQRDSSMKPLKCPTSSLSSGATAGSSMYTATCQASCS
Protocol Notes: Functional cAMP activity in the presence of 1% HSA
Format: cell-based
Test Settings: read-out: cAMP Rel EC50, hGLP-1R
pEC50: −log10 of the molar value. Starred links: 1 amine or outer side, 2 acyl side, 3 side chain; linkers in the order of their positions; H or OH if unused. Non-standard residues stand in square brackets, D forms with d. Groups on a side chain read outwards from the residue. *: point of attachment. C18 diacid = O=C(O)CCCCCCCCCCCCCCCCC(=O)*; αMePhe(2-F) = C[C@](N)(Cc1ccccc1F)C(=O)O; γGlu = O=C(O)[C@H](CCC(=O)[*:2])N[*:1]; αMe4Pal = C[C@](N)(Cc1ccncc1)C(=O)O; αMeY = C[C@](N)(Cc1ccc(O)cc1)C(=O)O; 4Pal = N[C@@H](Cc1ccncc1)C(=O)O; αMeL = CC(C)C[C@](C)(N)C(=O)O; αMeS = C[C@](N)(CO)C(=O)O; Orn = NCCC[C@H](N)C(=O)O; AEEA = NCCOCCOCC(=O)O; Aib = CC(C)(N)C(=O)O

>  <Substance>
H-Y[Aib]QGT[αMePhe(2-F)]TSD[4Pal][αMeS]I[αMeL]LD[Orn]K([AEEA-γGlu-C18 diacid])AA[Aib]EFI[dE][αMeY]LVEGGPSSGAPPPSGS-NH2 [Example 693]

>  <System Under Test>
hGLP-1R (Homo sapiens)

>  <pEC50>
7.74

$$$$
>  <Substance>
H-Y[Aib]QGT[αMePhe(2-F)]TSD[4Pal][αMeS]I[αMeL]LD[Orn]K([AEEA-γGlu-C18 diacid])AQ[Aib]NFIEYLIEGGPSSGEPPPEEG-NH2 [Example 482]

>  <System Under Test>
hGLP-1R (Homo sapiens)

>  <pEC50>
7.83

$$$$
>  <Substance>
H-Y[Aib]QGT[αMePhe(2-F)]TSD[4Pal]SI[αMeL]LD[Orn]K([γGlu-γGlu-C18 diacid])AQ[αMe4Pal]EFI[dE][αMeY]LAEGGPSSGAPPPSGS-NH2 [Example 646]

>  <System Under Test>
hGLP-1R (Homo sapiens)

>  <pEC50>
7.04

$$$$
